Provenance of the data: patent US8791107B2

Molecular target: PI3Kδ (Homo sapiens, UniProt O00329)
Construct: The protein is full length and co-expressed with untagged PIK3R1; GST; purchased Invitrogen PV5274
Sequence (O00329 whole entry): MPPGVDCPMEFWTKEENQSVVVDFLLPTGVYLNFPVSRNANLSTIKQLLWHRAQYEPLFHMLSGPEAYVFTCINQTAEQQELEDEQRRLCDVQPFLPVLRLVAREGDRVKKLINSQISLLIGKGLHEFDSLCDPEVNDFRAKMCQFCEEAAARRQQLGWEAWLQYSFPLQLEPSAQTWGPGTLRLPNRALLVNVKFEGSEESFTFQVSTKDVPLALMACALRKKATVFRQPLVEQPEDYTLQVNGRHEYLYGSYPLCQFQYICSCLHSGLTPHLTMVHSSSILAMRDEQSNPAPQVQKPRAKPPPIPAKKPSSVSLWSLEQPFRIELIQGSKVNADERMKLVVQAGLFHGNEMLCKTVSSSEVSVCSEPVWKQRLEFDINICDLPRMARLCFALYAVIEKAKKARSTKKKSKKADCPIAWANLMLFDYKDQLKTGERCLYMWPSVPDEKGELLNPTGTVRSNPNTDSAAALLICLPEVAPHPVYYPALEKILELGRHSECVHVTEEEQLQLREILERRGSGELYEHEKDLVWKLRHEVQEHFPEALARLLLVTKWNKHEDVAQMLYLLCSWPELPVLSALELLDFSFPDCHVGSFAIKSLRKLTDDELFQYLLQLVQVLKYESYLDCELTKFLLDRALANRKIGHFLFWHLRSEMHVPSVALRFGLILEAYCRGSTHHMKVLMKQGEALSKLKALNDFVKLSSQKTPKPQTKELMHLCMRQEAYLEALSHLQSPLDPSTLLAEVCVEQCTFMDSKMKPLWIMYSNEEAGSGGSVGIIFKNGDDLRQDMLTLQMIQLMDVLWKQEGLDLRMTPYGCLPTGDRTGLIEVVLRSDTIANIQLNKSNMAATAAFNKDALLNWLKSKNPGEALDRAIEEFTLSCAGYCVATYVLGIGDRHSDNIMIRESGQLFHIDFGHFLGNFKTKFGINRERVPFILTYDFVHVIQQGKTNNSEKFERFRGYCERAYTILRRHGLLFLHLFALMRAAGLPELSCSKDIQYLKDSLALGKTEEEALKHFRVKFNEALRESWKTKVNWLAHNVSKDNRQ
Sequence (P27986 whole entry partner): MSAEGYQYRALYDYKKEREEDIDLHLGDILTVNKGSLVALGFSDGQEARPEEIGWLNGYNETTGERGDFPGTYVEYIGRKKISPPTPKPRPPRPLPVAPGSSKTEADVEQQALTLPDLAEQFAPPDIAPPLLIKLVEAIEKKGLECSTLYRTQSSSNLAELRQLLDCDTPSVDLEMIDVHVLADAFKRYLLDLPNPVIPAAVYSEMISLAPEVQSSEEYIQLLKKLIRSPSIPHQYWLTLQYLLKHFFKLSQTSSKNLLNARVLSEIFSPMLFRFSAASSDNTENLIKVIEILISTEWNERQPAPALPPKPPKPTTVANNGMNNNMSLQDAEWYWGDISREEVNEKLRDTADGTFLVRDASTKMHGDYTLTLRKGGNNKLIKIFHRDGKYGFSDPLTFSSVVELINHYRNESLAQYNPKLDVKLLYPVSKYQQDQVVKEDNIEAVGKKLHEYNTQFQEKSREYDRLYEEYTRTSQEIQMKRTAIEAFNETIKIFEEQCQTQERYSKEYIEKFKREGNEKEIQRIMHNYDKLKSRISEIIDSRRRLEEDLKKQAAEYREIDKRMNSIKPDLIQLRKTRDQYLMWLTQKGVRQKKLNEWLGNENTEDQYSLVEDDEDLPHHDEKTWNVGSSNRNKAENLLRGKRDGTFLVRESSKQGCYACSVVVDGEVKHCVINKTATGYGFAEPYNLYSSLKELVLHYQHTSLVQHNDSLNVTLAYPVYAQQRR
Assay: PI3Kδ inhibition, modified PIK3CD Adapta TR-FRET assay
Type: biochemical
Conditions: recombinant GST-tagged full length PIK3CD co-expressed with PIK3R1 (p85α); 2 μM ATP, 50 μM PIP2; read-out: PI3Kδ Inhibition (pIC50) (converted)
Source text: The activity of compounds as PI3Kδ inhibitors may be determined by a variety of methods, including in vitro and in vivo methods. The following in vitro assay measures a test compound's ability to inhibit PI3Kδ-mediated phosphorylation of PIP2 and ATP. Recombinant GST-tagged PIK3CD is purchased from Invitrogen (Part Number: PV5274). The protein is full length and co-expressed with untagged PIK3R1, phosphoinositide-3-kinase regulatory subunit 1 (p85α). […]
Consider the following compounds and their measured IC50 readings.

compound	experimental_target	output_unit	IC50
CS(=O)(=O)c1ccc(CN2C(=O)C3COCCN3c3nc(-c4cccc5[nH]ccc45)ncc32)cc1 (centres unmarked)	PI3Kδ (Homo sapiens, UniProt O00329)	nM	0.794
O=C(CN1C[C@@H]2COCCN2c2nc(-c3ccccc3CO)ncc21)NCC1CCOCC1	PI3Kδ (Homo sapiens, UniProt O00329)	nM	5010
O=C(Cc1coc2ccccc12)N1CC2COCCN2c2nc(-c3cccc4[nH]ccc34)ncc21 (centres unmarked)	PI3Kδ (Homo sapiens, UniProt O00329)	nM	398
Nc1ccc(-c2ncc3c(n2)N2CCOC[C@H]2CN3CC(=O)NCC2CCOCC2)cn1	PI3Kδ (Homo sapiens, UniProt O00329)	nM	126
O=C1Nc2cnc(-c3cccc4[nH]cnc34)nc2N2CCOCC12 (centres unmarked)	PI3Kδ (Homo sapiens, UniProt O00329)	nM	501
Cc1nc(-c2cccc3[nH]ccc23)nc2c1N(Cc1ccc(S(C)(=O)=O)cc1)CC1COCCN21 (centres unmarked)	PI3Kδ (Homo sapiens, UniProt O00329)	nM	251
COCCNC(=O)CN1C[C@@H]2COCCN2c2nc(-c3cccc4[nH]ccc34)ncc21	PI3Kδ (Homo sapiens, UniProt O00329)	nM	158
CCc1ccccc1N1C[C@@H]2COCCN2c2nc(-c3cccc4[nH]ccc34)ncc21	PI3Kδ (Homo sapiens, UniProt O00329)	nM	398

###

Target: PI3Kδ (Homo sapiens)
Construct: The protein is full length and co-expressed with untagged PIK3R1; GST; purchased Invitrogen PV5274
Assay: PI3Kδ inhibition, modified PIK3CD Adapta TR-FRET assay
Assay type: biochemical
Conditions: recombinant GST-tagged full length PIK3CD co-expressed with PIK3R1 (p85α); 2 μM ATP, 50 μM PIP2; read-out: PI3Kδ Inhibition (pIC50) (converted)
observable: IC50

compound	observable	value
O=C(CN1C[C@@H]2COCCN2c2nc(-c3cccc4[nH]ccc34)ncc21)NCC1CCOCC1 [Example 73]	IC50	0.02 µM
CS(=O)(=O)c1ccc(CN2CC3COCCN3c3nc(-c4cnc(N)nc4)ncc32)c(Cl)c1 (stereo not shown) [Example 7]	IC50	0.00794 µM
Cc1ccc([C@H](C)N2C(=O)[C@@H]3COCCN3c3nc(-c4cccc5[nH]ccc45)ncc32)cc1 (single isomer, unassigned) [Example 153]	IC50	0.0398 µM
CC(C)(C)C(N)CCN1C[C@@H]2COCCN2c2nc(-c3cccc4[nH]ccc34)ncc21 (stereo partly shown) [Example 210]	IC50	> 10 µM
Cc1nccn1-c1ncc2c(n1)N1CCOCC1C(=O)N2Cc1ccc(S(C)(=O)=O)cc1 (stereo not shown) [Example 156]	IC50	0.316 µM
CC(C)NS(=O)(=O)c1cccc(-c2ncc3c(n2)N2CCOCC2C(=O)N3Cc2ccc(S(C)(=O)=O)cc2)c1 (stereo not shown) [Example 98]	IC50	6.31 µM
CS(=O)(=O)c1ccc(CN2C(=O)C3COCCN3c3nc(-c4ccnc5[nH]ccc45)ncc32)cc1 (stereo not shown) [Example 155]	IC50	0.0251 µM

###

Biological target: PI3Kδ (Homo sapiens, UniProt O00329)
Construct: The protein is full length and co-expressed with untagged PIK3R1; GST; purchased Invitrogen PV5274
Assay: PI3Kδ inhibition, modified PIK3CD Adapta TR-FRET assay
Assay type: biochemical
Conditions: recombinant GST-tagged full length PIK3CD co-expressed with PIK3R1 (p85α); 2 μM ATP, 50 μM PIP2; read-out: PI3Kδ Inhibition (pIC50) (converted)
observable: IC50 (nM)

molecule	output_unit	value
Cc1ccc(S(=O)(=O)N2CC3COCCN3c3nc(-c4cccc5[nH]ccc45)ncc32)cc1 (centres unmarked)	nM	398
CC(C)N(C)C(=O)CN1CC2COCCN2c2nc(-c3cccc4[nH]ccc34)ncc21 (centres unmarked)	nM	316
CC(=O)N1CC2COCCN2c2nc(-n3c(C(F)F)nc4ccccc43)ncc21 (centres unmarked)	nM	631
c1cc(-c2ncc3c(n2)N2CCOCC2CN3)c2nc[nH]c2c1 (centres unmarked)	nM	3160
N#Cc1ccccc1CN1CC2COCCN2c2nc(-c3cccc4[nH]ccc34)ncc21 (centres unmarked)	nM	251
CCc1nnc(CN2C[C@@H]3COCCN3c3nc(-c4cccc5[nH]ccc45)ncc32)o1	nM	7.94
c1cc(-c2ncc3c(n2)N2CCOCC2CN3)c2cc[nH]c2n1 (centres unmarked)	nM	398
CCc1cccc(N2C[C@@H]3COCCN3c3nc(-c4cccc5[nH]ccc45)ncc32)c1	nM	398

###

Let's look at some molecules and their measured IC50.
Biological target: PI3Kδ (Homo sapiens, UniProt O00329)
Construct: The protein is full length and co-expressed with untagged PIK3R1; GST; purchased Invitrogen PV5274
Test: PI3Kδ inhibition, modified PIK3CD Adapta TR-FRET assay
Format: biochemical
Details: recombinant GST-tagged full length PIK3CD co-expressed with PIK3R1 (p85α); 2 μM ATP, 50 μM PIP2; read-out: PI3Kδ Inhibition (pIC50) (converted)

molecule	IC50 / nM
CC(=O)Nc1ccc(-c2ncc3c(n2)N2CCOC[C@H]2CN3CC(=O)NCC2CCOCC2)cc1	316
CNC(=O)Nc1ccc(-c2ncc3c(n2)N2CCOCC2CN3Cc2ccc(S(C)(=O)=O)cc2Cl)cc1 (centres unmarked)	10
CCc1nnc(CN2C[C@@H]3COCCN3c3nc(-c4cc(CO)ccc4F)ncc32)o1	50.1
COc1cc(-c2ncc3c(n2)N2CCOCC2CN3)ccn1 (centres unmarked)	5010
CS(=O)(=O)c1ccc(CN2C(=O)C3COCCN3c3nc(-c4cccc(-c5cc[nH]n5)c4)ncc32)cc1 (centres unmarked)	3160
O=C(CN1C[C@@H]2COCCN2c2nc(-c3cccc4[nH]ccc34)ncc21)NC1CCOCC1	200
COc1ccc2c(-c3ncc4c(n3)N3CCOCC3C(=O)N4Cc3ccc(S(C)(=O)=O)cc3)c[nH]c2c1 (centres unmarked)	501
c1cc(-c2ncc3c(n2)N2CCOCC2CN3Cc2ncco2)c2cc[nH]c2c1 (centres unmarked)	20

###

Target: PI3Kδ (Homo sapiens, UniProt O00329)
Construct: The protein is full length and co-expressed with untagged PIK3R1; GST; purchased Invitrogen PV5274
Experiment: PI3Kδ inhibition, modified PIK3CD Adapta TR-FRET assay
Type: biochemical
Conditions: recombinant GST-tagged full length PIK3CD co-expressed with PIK3R1 (p85α); 2 μM ATP, 50 μM PIP2; read-out: PI3Kδ Inhibition (pIC50) (converted)

compound	output_unit	IC50
CS(=O)(=O)c1ccc(CN2C(=O)C3COCCN3c3nc(-c4cccc(NS(=O)(=O)C5CC5)c4)ncc32)cc1 (stereo not drawn) [Example 120]	nM	7940
O=C(CN1C[C@@H]2COCCN2c2nc(-c3cccc(OC(F)F)c3)ncc21)NCC1CCOCC1 [Example 217]	nM	794
CS(=O)(=O)c1ccc(CN2C[C@@H]3COCCN3c3nc(-c4cncc5[nH]ccc45)ncc32)cc1 [Example 30]	nM	1.26
OCCN1C[C@@H]2COCCN2c2nc(-c3cccc4[nH]ccc34)ncc21 [Example 173]	nM	158
CS(=O)(=O)c1ccc(CN2CC3COCCN3c3nc(-c4cccc5[nH]ccc45)ncc32)cc1 (stereo not drawn) [Example 19]	nM	10
O=C(Nc1ccc(-c2ncc3c(n2)N2CCOCC2C(=O)N3C2CCOCC2)cc1)NC1CC1 (stereo not drawn) [Example 229]	nM	31.6
N#Cc1ccccc1N1C[C@@H]2COCCN2c2nc(-c3cccc4[nH]ccc34)ncc21 [Example 186]	nM	50.1
NC(=O)c1ccc(F)c(CN2CC3COCCN3c3nc(-c4cccc5[nH]ccc45)ncc32)c1 (stereo not drawn) [Example 77]	nM	50.1
CC(C)(C#N)NC(=O)CN1C[C@@H]2COCCN2c2nc(-c3cccc4[nH]ccc34)ncc21 [Example 208]	nM	398
CC(=O)Nc1ccccc1-c1ncc2c(n1)N1CCOCC1C(=O)N2Cc1ccc(S(C)(=O)=O)cc1 (stereo not drawn) [Example 104]	nM	200
CC(=O)Nc1cccc(-c2ncc3c(n2)N2CCOCC2C(=O)N3Cc2ccc(S(C)(=O)=O)cc2)c1 (stereo not drawn) [Example 101]	nM	316
CNC(=O)Nc1ccc(-c2ncc3c(n2)N2CCOCC2C(=O)N3C2CCOCC2)cc1 (stereo not drawn) [Example 158]	nM	7.94
